- Tested on: 786-0
- assayDetails: NCI tumour cell line growth inhibition, 48 h
Calls of active or inactive are those of the source. Cut-off read from the data, not from the text of the source: active = GI50 up to about 1.1 µM and inactive = higher.
// one of TRUE for active, FALSE for inactive, no free text

Examples with answers:
{"columns": ["compound", "answerLabel"],
 "data": [
  ["COC(=O)c1ccc(-c2nc(C#N)c(N)o2)cc1", "FALSE"],
  ["COc1cc(C2c3cc4c(cc3[C@@H](OCCN)[C@H]3COC(=O)C23)OCO4)cc(OC)c1O (some centres undefined)", "TRUE"],
  ["C[C@@H](CO)C1=CC(C#C[Si](C)(C)C)N(C(=O)Oc2ccccc2)c2ccccc21 (some centres undefined)", "FALSE"]
]}

Turning now to a further record.
Incoming: For C/C(CC(=O)Nc1ccc(Cl)c(Cl)c1)=N/NC(=O)C[N+](C)(C)C , what call appears in the results of this test?
Outgoing: FALSE

* * *

- Tested on: Hs-578T
- assayDetails: NCI tumour cell line growth inhibition, 48 h
Active and inactive are the calls of the source. No stated cut-off is given here; in the data, active = GI50 up to about 1.1 µM and inactive = higher.
Outcome field: choose from Yes = active, No = inactive

Look over these answered cases.
{"columns": ["compound", "targetOrTestSystem", "answerLabel"],
 "data": [
  ["CCc1cc(O)c(Cl)c(C)c1Cl", "Hs-578T", "No"],
  ["COc1cccc(N2C(=O)C3c4[nH]c5ccccc5c4C4CCCC4C3C2=O)c1 (stereo unspecified)", "Hs-578T", "No"],
  ["CCNC(=S)/N=c1\\sc(NCC)nc2sc3c(c12)CCN(N1CCc2c(sc4nc(NCC)s/c(=N\\C(=S)NCC)c24)C1)C3", "Hs-578T", "No"]
]}

Incoming: How was Cn1c(N/N=C/c2ccccc2)nc(-c2ccc([N+](=O)[O-])cc2)c(C#N)c1=O classified in this test?
Outgoing: No

Incoming: # repeat for COc1nc(C)nc2c1ncn2Cc1ccccc1
Outgoing: No

Incoming: // repeat for CCCCCCCCCCCCCCCCCCOc1ccc(/C=C/C2=[N+](CCCl)CCO2)cc1 and report
Outgoing: No

Incoming: Also, COc1cc(N(C)C)c(OC)cc1C=C1C=CC=C1 please.
Outgoing: No

Incoming: Also O=C1C=CC(=O)c2c1ccc1c3ccccc3n(Cc3cccc([N+](=O)[O-])c3)c21 ?
Outgoing: No

Incoming: # repeat for O=C(O)c1cc2ccccc2c(/N=N/c2c([N+](=O)[O-])cc([N+](=O)[O-])cc2S(=O)(=O)O)c1O
Outgoing: No

Incoming: // next record Cc1cccc(CC(Cc2ccc(C)cc2C(=O)O)C(=O)O)c1 (stereo unspecified)
Outgoing: No

Incoming: Another compound to check: O=C1C(c2c(O)[nH]c3ccc(Br)cc23)=Nc2ccc(Br)cc21
Outgoing: No

Incoming: CC(C)c1c(O[Si](C(C)C)(C(C)C)C(C)C)c2c3c(ccc4c3c1OC4(C)C)C(C)CC2 (stereo unspecified) ?
Outgoing: No

* * *

- System: TK-10
- assayDetails: NCI tumour cell line growth inhibition, 48 h
The source made the active and inactive calls. No stated cut-off is given here; in the data, active = GI50 up to about 1.1 µM and inactive = higher.
Your reply should match one of these outcome classes. Y = active, N = inactive

{"columns": ["compound", "targetOrTestSystem", "answerLabel"],
 "data": [
  ["CC(C)=CC(=O)N(C)C1C2CN3CCC(O2)C13 (centres undefined)", "TK-10", "N"],
  ["O=c1c(Br)cc2c(-c3ccccc3)c3cc(Br)c(O)c(Br)c3oc-2c1Br", "TK-10", "N"],
  ["c1ccc(C2=NN=C3C(c4ccccc4)=Nc4ccccc4N3C2)cc1", "TK-10", "N"]
]}

Incoming: Which result was noted for this compound in the test: COc1cc(/C=C2\CCC(C)/C(=C\c3cc(OC)c(OC)c(OC)c3)C2=O)cc(OC)c1OC (centres undefined)
Outgoing: N

Incoming: What do we get for O=c1c2ccccc2nc(-c2ccccc2)n1NC(=S)Nc1ccc(Cl)cc1 ?
Outgoing: N

Incoming: Now the compound S=C(N/N=C/c1ccco1)NC12CC3CC(CC(C3)C1)C2
Outgoing: N

Incoming: Lookup COc1cc(/C=C2\C[C@H]3[C@@H]4CC=C5C[C@@H](N6CCCC6)CC[C@]5(C)[C@H]4CC[C@]3(C)[C@H]2O)cc(OC)c1OC
Outgoing: N

Incoming: # repeat for CC1=C2C(=CC(C)(C)[C@@H]2O)C(=O)[C@](C)(O)C12CC2 [ILLUDIN M]
Outgoing: Y

Incoming: How about this compound: COC(=O)/C=C\C(C#N)(C#N)/N=C/c1ccc(Br)cc1
Outgoing: N

* * *

- Test system: SNB-78
- assayDetails: NCI tumour cell line growth inhibition, 48 h
Activity calls are given as the source filed them. No stated cut-off is given here; in the data, active = GI50 up to about 1.1 µM and inactive = higher.
measuredAttribute: GI50

Here's what some known entries look like.
{"columns": ["molecule", "targetOrTestSystem", "GI50"],
 "data": [
  ["N#Cc1c2c(c(N=[N+]=[N-])n3c1nc1ccccc13)CCCC2", "SNB-78", "3.56 µM (inactive)"],
  ["[N-]=[N+]=NC1C(Br)C(=O)NC(=O)N1[C@H]1C[C@H](O)[C@@H](CO)O1 (stereo partly specified)", "SNB-78", "> 100 µM (inactive)"],
  ["N/N=c1\\c2ccccc2c2cc3c(cc12)/c(=N/N)c1ccccc13", "SNB-78", "> 100 µM (inactive)"],
  ["N#C/N=C1\\NCCC(=O)N1CCc1c[nH]c2ccccc12", "SNB-78", "> 100 µM (inactive)"],
  ["O=C1CCC23CC(C=CC=C12)n1c(=O)n(-c2ccccc2)c(=O)n13 (stereo unspecified)", "SNB-78", "> 59.2 µM (inactive)"]
]}

Incoming: // lookup GI50 for O=C(CC1(O)C(=O)Nc2c(Cl)cc(Cl)cc21)c1ccc([N+](=O)[O-])cc1 (stereo unspecified)
Outgoing: > 47.8 µM (inactive)

* * *

- Test system: HL-60
- assayDetails: NCI tumour cell line growth inhibition, 48 h
The source made the active and inactive calls. No stated cut-off is given here; in the data, active = GI50 up to about 1.1 µM and inactive = higher.
Entry note: the call must match one of active, inactive

{"columns": ["molecule", "answerLabel"],
 "data": [
  ["CC1CC(N)=C(C#N)C1(C#N)C#N (stereo unspecified)", "inactive"]
]}

Incoming: Could you kindly confirm the outcome this assay logged for [N-]=[N+]=NC1C(Br)C(=O)NC(=O)N1[C@H]1C[C@H](O)[C@@H](CO)O1 (stereo partly specified) ?
Outgoing: inactive

* * *

- Tested on: 786-0
- assayDetails: NCI tumour cell line growth inhibition, 48 h
Active and inactive are the calls of the source. Cut-off read from the data, not from the text of the source: active = GI50 up to about 1.1 µM and inactive = higher.
Recorded GI50, one value per entry.

Here is how some molecules turned out for GI50.
{"columns": ["molecule", "targetOrTestSystem", "GI50"],
 "data": [
  ["COc1cccc(N(CN2C(=O)CCC2OC)C(C)=O)c1 (centres undefined)", "786-0", "> 100 µM (inactive)"],
  ["CC1(O)CC(C(F)(F)F)(C(F)(F)F)OC1=O (centres undefined)", "786-0", "> 10 µM (inactive)"],
  ["C/C(=N/NC(=S)N1CCCCC1)c1ccccc1O", "786-0", "> 31.6 µM (inactive)"],
  ["CC(C)=CC(=O)N(C)C1C2CN3CCC(O2)C13 (centres undefined)", "786-0", "> 100 µM (inactive)"],
  ["O=C(CON1C(=O)c2ccccc2C1=O)c1ccccc1", "786-0", "32.4 µM (inactive)"],
  ["S=C(N/N=C(\\c1ccccc1)c1ccccn1)NC1CCCCC1", "786-0", "18 µM (inactive)"],
  ["O=C1C(c2ccc([N+](=O)[O-])cc2)=[N+]([O-])c2ccccc21", "786-0", "> 100 µM (inactive)"],
  ["C=C(C)[C@@]1(O[Si](C)(C)C)CCCC[C@@H]1CC(Sc1ccccc1)Sc1ccccc1", "786-0", "14.6 µM (inactive)"],
  ["CCOC(=O)/C=C(/C(=O)OCC)n1ccc(=O)n(/C(=C/C(=O)OCC)C(=O)OCC)c1=O", "786-0", "2.4 µM (inactive)"],
  ["C[n+]1c2ccccc2c2/c(=C\\C#N)c3ccccc3n21", "786-0", "3.5 µM (inactive)"]
]}

Incoming: Using the record for O=C(NCCC1CN(S(=O)(=O)C(F)(F)F)c2ccccc21)OCc1ccccc1 (centres undefined) , report its GI50.
Outgoing: > 100 µM (inactive)

Incoming: Query O=C(O)Cn1ncn(NC(=O)Cc2ccccc2)c1=S next
Outgoing: > 10 µM (inactive)

Incoming: Then what about the molecule [O-][S+](CCc1ccccc1)Nc1ccccc1 (centres undefined) ?
Outgoing: > 100 µM (inactive)

Incoming: Please give the result for O=c1cc(/N=N\c2ccc(Cl)cc2)[nH]c(=O)[nH]1 too.
Outgoing: 1.66 µM (inactive)

* * *

- Tested on: MDA-N
- assayDetails: NCI tumour cell line growth inhibition, 48 h
The source made the active and inactive calls. Rule as the data show it: active = GI50 up to about 1.1 µM and inactive = higher.
Pick one: Yes (active), No (inactive)

See these solved cases before continuing.
{"columns": ["compound", "answerLabel"],
 "data": [
  ["Cc1cc2c(cc1C)[n+]([O-])c(C#N)c(Cl)[n+]2[O-]", "No"],
  ["Cc1nc(-c2cc3c(ccc4ccccc43)oc2=O)cs1", "No"],
  ["COc1ccc(C2C3=C(COC3=O)OC(C)(C)Oc3cc4c(cc32)OCO4)cc1 (centres undefined)", "No"],
  ["O=CC(O)C(O)C(O)C(O)COC(=O)NCCCCC(=O)C(F)(F)C(F)(F)C(F)(F)C(F)(F)C(F)(F)C(F)(F)C(F)(F)F (centres undefined)", "No"]
]}

Incoming: Query: recorded result category for CN(C)CC1=Nc2cccc3cccc(c23)N1 in this test
Outgoing: No

Incoming: Another compound to check: CC(=O)c1cc2c(Br)cccc2oc1=O
Outgoing: No

Incoming: Could you do the same for CC1C2Cc3ccc(O)cc3C1(C)CCN2C (centres undefined) , please?
Outgoing: No

Incoming: Proceed to CC1=Nc2c(O)nc(S)nc2NC(c2c(Cl)cccc2Cl)C1 (centres undefined)
Outgoing: Yes

Incoming: Next entry: COc1ccc(CCN2COc3ccc4ccc(=O)oc4c3C2)cc1OC
Outgoing: No
